These entries and their values trace back to paper PMC8523171.

Biological target: TDP-43 RRM1-2 (human, UniProt Q13148 101-277)
Sequence (Q13148 101-277): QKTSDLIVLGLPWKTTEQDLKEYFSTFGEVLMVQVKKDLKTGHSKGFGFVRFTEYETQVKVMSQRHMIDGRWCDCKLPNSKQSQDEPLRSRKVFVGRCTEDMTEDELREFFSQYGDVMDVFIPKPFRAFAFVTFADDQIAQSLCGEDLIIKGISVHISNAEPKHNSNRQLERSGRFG
Test: ITC; Kd1, first monomer; ITC: 15 mM phosphate pH 6.8, 25 mM KCl, 1 mM TCEP, 25 C; NMR: same buffer, 298 K (SEA-HSQC 310 K); EMSA: 20 mM HEPES pH 7.6, 25 mM KCl, 1 mM TCEP, 2 mM MgCl2, room temperature, 10 pmol DNA in 10 uL
Conditions: protein: recombinant; tags: His6 cleaved by TEV; residual N-terminal GSH (180 aa); single strand
Assay readout: Kd

| Binder | Result |
| --- | --- |
| GTGTGTGTGTGTGTGTGTGTGTGT (ssDNA) [(GT)12] | 51 nM |
